Where do these numbers come from? They come from ChEMBL document CHEMBL1255187.

target: Protein farnesyltransferase (Homo sapiens, UniProt P49354+P49356); assay: Inhibition of human farnesyltransferase assessed as incorporation of [3H]FPP into H-Ras-CVLS
pIC50: −log10 of the molar value.
observation_type: pIC50

Known results for compounds:
compound=CN(C)c1cccc2c(S(=O)(=O)N(CCN(Cc3cncn3C)c3ccc(C#N)cc3)Cc3ccccc3)cccc12 target_of_assay="Protein farnesyltransferase (Homo sapiens, UniProt P49354+P49356)" assay_value=6.80
compound=Cn1cnc(S(=O)(=O)N(CCN(Cc2cncn2C)c2ccc(C#N)cc2)Cc2cccc(C#N)c2)c1 target_of_assay="Protein farnesyltransferase (Homo sapiens, UniProt P49354+P49356)" assay_value=7.11
compound=Cn1cnc(S(=O)(=O)N(CCCN(Cc2cncn2C)c2ccc(C#N)cc2)Cc2ccccc2)c1 target_of_assay="Protein farnesyltransferase (Homo sapiens, UniProt P49354+P49356)" assay_value=6.38
compound="Cn1cnc(S(=O)(=O)N(Cc2ccccc2)[C@@H]2CCC[C@@H]2N(Cc2cncn2C)c2ccc(C#N)cc2)c1 (racemic)" target_of_assay="Protein farnesyltransferase (Homo sapiens, UniProt P49354+P49356)" assay_value=6.00
compound=Cc1ccc(CN(CCN(Cc2cncn2C)c2ccc(C#N)cc2)S(=O)(=O)c2cn(C)cn2)cc1 target_of_assay="Protein farnesyltransferase (Homo sapiens, UniProt P49354+P49356)" assay_value=6.43

P = Cn1cnc(S(=O)(=O)N(CCN(Cc2cncn2C)c2ccc(C#N)nc2)CC2CCN(c3ncccn3)CC2)c1
Q = Cn1cnc(S(=O)(=O)N(CCN(Cc2cncn2C)c2c(F)cc(C#N)cc2F)CC2CCN(c3ncccn3)CC2)c1
INPUT: Higher pIC50 between P and Q ? Response format: the label of the selected entry.
OUTPUT: Q
